# Target or test system: cyclophilin A (Homo sapiens, UniProt P62937)
# Sequence (P62937 whole entry, species assumed): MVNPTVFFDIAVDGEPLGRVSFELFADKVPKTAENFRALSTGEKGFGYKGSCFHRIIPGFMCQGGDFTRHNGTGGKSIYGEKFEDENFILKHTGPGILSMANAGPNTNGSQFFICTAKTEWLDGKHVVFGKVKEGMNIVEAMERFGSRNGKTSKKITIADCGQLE
# Measurement protocol: Cyclophilin A TR-FRET competitive binding assay
# Test conditions: IC50 ranges; competition with CsA-Cy5 for His-tagged CypA, two-hour incubation; read-out: TR-FRET
pIC50: −log10 of the molar value.
We begin with a simple list: items and their reported pIC50.

Known pIC50 results, listed for orientation:
CC(C)[C@@H]1NC(=O)Cc2cccc(c2)-c2cc3cc(ccc3cn2)[C@@H](C)OC(=O)[C@@H]2CCCN(N2)C(=O)[C@H](C)NC1=O [Compound 65]	> 7.00
CC(C)[C@@H]1NC(=O)[C@H](C)[C@H](OCC(F)(F)F)CC/C=C/c2cccc(c2)[C@@H](C)NC(=O)[C@@H]2CCCN(N2)C(=O)[C@H](C)NC1=O [Compound 2]	6.00 to 7.00
C=CC[C@@H]1NC(=O)C(C)(C)/C=C/c2cc3cc(ccc3cn2)[C@@H](C)OC(=O)[C@@H]2CCCN(N2)C(=O)[C@H](C)NC1=O [Compound 52]	> 7.00
CC(C)[C@@H]1NC(=O)C(C)(C)/C=C/c2ccc3ccc(nc3c2)[C@@H](C)OC(=O)[C@@H]2CCCN(N2)C(=O)[C@H](CC(=O)N(C)C)NC1=O [Compound 97]	> 7.00
CC(C)[C@@H]1NC(=O)CCCCCc2cc3cc(ccc3cn2)[C@@H](C)OC(=O)[C@@H]2CCCN(N2)C(=O)[C@H](C)NC1=O [Compound 62]	6.00 to 7.00
CC(C)[C@@H]1NC(=O)C(C)(C)/C=C/c2cc3cc(ccc3cn2)[C@@H](C)NC(=O)[C@@H]2CCCN(N2)C(=O)[C@H](C)NC1=O [Compound 143]	> 7.00
CC(C)[C@@H]1NC(=O)C(C)(C)/C=C/c2ccc3ccc(nc3c2)[C@H]2CCCN2C(=O)[C@@H]2CCCN(N2)C(=O)[C@H](C)NC1=O (single isomer, unassigned) [Compound 150]	> 7.00
CC(C)[C@@H]1NC(=O)C/C=C/c2cc3cc(ccc3cn2)[C@@H](C)NC(=O)[C@@H]2CCCN(N2)C(=O)[C@H](C)NC1=O [Compound 11]	> 7.00
CO[C@@H]1/C=C/c2cc3cc(ccc3cn2)[C@@H](C)NC(=O)[C@@H]2CCCN(N2)C(=O)[C@H](C)NC(=O)[C@H](C(C)C)NC(=O)[C@@H]1C [Compound 5]	> 7.00
CC(C)[C@@H]1NC(=O)CCCc2ccc3ccc(cc3c2)[C@@H](C)OC(=O)[C@@H]2CCCN(N2)C(=O)[C@H](C)NC1=O [Compound 71]	6.00 to 7.00

Lookup result for CC(C)[C@@H]1NC(=O)CCC(C)(C)C/C=C/c2cccc(c2)[C@@H](C)NC(=O)[C@@H]2CCCN(N2)C(=O)[C@H](C)NC1=O [Compound 4] ; measured pIC50: 6.00 to 7.00

====

We begin with a simple list: items and their reported inhibition at 1 µM.
# Tested on: HCV replicon (Replicon 1a)
# Measurement protocol: anti-HCV activity in Huh-7 cell line harboring a HCV replicon (Replicon 1a)
# Type: cell-based
# Test conditions: Hepatitis C virus, Huh-7, 72 h, read-out: Replicon 1a % inhibition at 1 μM
Dear colleague, please return just the value in %, with no unit written.

Known inhibition at 1 µM results, listed for orientation:
CC(C)[C@@H]1NC(=O)[C@@H](C)/C=C/c2ccc3ccc(nc3c2)[C@@H](C)OC(=O)[C@@H]2CCCN(N2)C(=O)[C@H](C)NC1=O	100
CC(C)[C@@H]1NC(=O)C(C)(C)/C=C/c2ccc3ccc(nc3c2)[C@@H](C)OC(=O)[C@@H]2CCCN(N2)C(=O)[C@H](CC(=O)N2CCCCC2)NC1=O	95
CC(C)[C@@H]1NC(=O)[C@@](C)(CO)/C=C/c2ccc3ccc(nc3c2)[C@@H](C)OC(=O)[C@@H]2CCCN(N2)C(=O)[C@H](C)NC1=O	99
CC(C)[C@@H]1NC(=O)[C@@](C)(COCC[Si](C)(C)C)/C=C/c2ccc3ccc(nc3c2)[C@@H](C)OC(=O)[C@@H]2CCCN(N2)C(=O)[C@H](C)NC1=O	99
CC(C)[C@@H]1NC(=O)[C@H](CC2CC2)/C=C/c2ccc3ccc(nc3c2)[C@@H](C)OC(=O)[C@@H]2CCCN(N2)C(=O)[C@H](C)NC1=O	100

Now, please, on to the next compound.
Tested system HCV replicon (Replicon 1a); inhibition at 1 µM recorded for CC(C)[C@@H]1NC(=O)[C@H](C)C/C=C/COc2ccc(F)c(c2)[C@@H](C)OC(=O)C2CCCN(N2)C(=O)[C@H](C)NC1=O (some centres unmarked) was 94
